Measured LogP of individual entries
experiment: Log P by HPLC on reversed phase columns (EEC directive 79/831 Annex V.A8); assay type: physicochemical; details: method [a]

CCCCOC(=O)C1(NC(=O)c2sc(Br)c(Br)c2F)CCC1 [1.0926] :: 4.74^[a]
O=C(NC(Cc1c[nH]c2ccccc12)C(=O)O)c1sc(Br)c(Br)c1F (stereo not shown) [1.0231] :: 3.05^[a]
COC(=O)C1(NC(=O)c2sc(Br)c(Br)c2F)COC1 [1.0541] :: 2.49^[a]
CCOC(=O)CCNC(=O)c1sc(Cl)c(Cl)c1I [1.0189] :: 3.47^[a]
COC(=O)[C@H](CC(=O)OC(C)(C)C)NC(=O)c1sc(Br)c(Br)c1F [1.0560] :: 4.12^[a]

Entry under review: CCOC(=O)CNC(=O)c1sc(I)c(Cl)c1Cl [1.0827] . Reported LogP?
3.24^[a]

Entry under review: COC(=O)C1(NC(=O)c2sc(Br)c(Cl)c2C)CC1 [1.0163] . Reported LogP?
2.76^[a]

Entry under review: Cc1c(C(=O)NC2(C(=O)OC3CCC3)CC2)sc(Br)c1Cl [1.0651] . Reported LogP?
3.78^[a]

Entry under review: CCOC(=O)C1(NC(=O)c2sc(Br)c(Cl)c2Cl)CC1 [1.0197] . Reported LogP?
3.47^[a]

Entry under review: COC(=O)CNC(=O)c1cc(Br)c(Cl)s1 [1.0240] . Reported LogP?
2.36^[a]

---

assay: Log P by HPLC on reversed phase columns (EEC directive 79/831 Annex V.A8); type: physicochemical; conditions: method [a]
Measured LogP of individual entries

O=C(NC(CO)C(=O)O)c1sc(Br)c(Br)c1F (stereo not shown) [1.0228] :: 1.77^[a]
CCOC(=O)CC[C@H](NC(=O)c1sc(Br)c(Br)c1Cl)C(=O)OCC [1.0532] :: 4.23^[a]

Here's the next entry for you.
Entry under review: COC(=O)[C@H](CC(=O)OC(C)(C)C)NC(=O)c1sc(Cl)c(Cl)c1Br [1.0552] . Reported LogP?
4.59^[a]

---

Measured LogP of individual entries
assay: Log P by HPLC on reversed phase columns (EEC directive 79/831 Annex V.A8); type: physicochemical; conditions: method marked [a]

O=C(CNC(=O)c1sc(Br)c(Br)c1Cl)OC1CCOC1 (stereo not drawn) :: 2.84^[a]
CCOC(=O)C(Cc1ccccc1)NC(=O)c1sc(Cl)c(Cl)c1C#N (stereo not drawn) :: 3.98^[a]
CCOC(=O)C(NC(=O)c1sc(Br)c(Br)c1C(F)F)C(C)C (stereo not drawn) :: 4.16^[a]
CCOC(=O)CNC(=O)c1sc(Br)c(C#N)c1Cl :: 2.57^[a]

Entry under review: CCOC(=O)C(CSC)NC(=O)c1sc(C#N)c(Cl)c1Cl (stereo not drawn) . Reported LogP?
3.54^[a]

Entry under review: CCOC(=O)C(CSC)NC(=O)c1sc(C#N)c(Br)c1C (stereo not drawn) . Reported LogP?
3.26^[a]

Entry under review: CCOC(=O)C(CCSC)NC(=O)c1cc(F)c(Cl)s1 (stereo not drawn) . Reported LogP?
3.25^[a]

Data provenance is patent US12642270B2.
